Ref: patent US10849901B2

biological target: Arf6 (Homo sapiens (Human), UniProt P62330); experiment: Fluorometric assay for Arf6 nucleotide exchange catalyzed by ARNO Sec7 domain (GTP-BODIPY FL); type: biochemical; settings: 20 nM Arf6 assay; read-out: IC50 (μM) 20 nM Arf6
Sequence (P62330 14-175): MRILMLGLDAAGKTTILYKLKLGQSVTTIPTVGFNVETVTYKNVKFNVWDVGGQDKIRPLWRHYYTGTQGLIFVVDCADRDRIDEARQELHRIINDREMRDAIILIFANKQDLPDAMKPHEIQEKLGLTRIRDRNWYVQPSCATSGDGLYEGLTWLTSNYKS
readout-type: IC50
A complete answer gives the number and then names the unit.

Below, 10 compounds whose answers are already recorded.
1) O=c1cc(-c2ccc([N+](=O)[O-])cc2)[nH]c2c(-c3ccc(Cl)cc3)c(C(F)(F)F)nn12: 1.6 µM
2) Nc1scc2c(-c3nnc(Nc4ccccc4)s3)nn(-c3ccc([N+](=O)[O-])cc3)c(=O)c12: 5.1 µM
3) O=c1[nH]c(CSc2ncnc3sccc23)nc2ccsc12: 17 µM
4) O=c1cc(-c2ccc([N+](=O)[O-])cc2)[nH]c2c(-c3ccc(Cl)c(Cl)c3)c(C3CC3)nn12 [Compound 27]: 1.4 µM
5) CN(C)c1ccc(-c2cccc(-c3cc(=O)n4nc(C(F)(F)F)c(-c5ccc(Cl)cc5)c4[nH]3)c2)cn1: 1.1 µM
6) Cc1nn2c(=O)cc(-c3ccc([N+](=O)[O-])cc3)[nH]c2c1-c1ccc(-c2ccccc2)cc1: 1.1 µM
7) Cc1nc2c(=O)[nH]c(-c3ccc([N+](=O)[O-])cc3)nn2c1-c1ccc(Cl)cc1: 4 µM
8) CC(C)(C)c1nn2c(=O)cc(-c3cccc(C#N)c3)[nH]c2c1-c1ccc(Cl)cc1: 2.2 µM
9) Cc1nn2c(=O)cc(-c3ccc([N+](=O)[O-])cc3)[nH]c2c1-c1cccc(Cl)c1Cl: 3.2 µM
10) O=C1NC(=O)c2ccccc2/C1=C/c1cnn(Cc2ccccc2)c1: 5.4 µM

Could I get IC50 for every one of these entries?
1. O=c1c(Cl)c(-c2ccc([N+](=O)[O-])cc2)[nH]c2c(-c3ccc(Cl)cc3)c(Cc3ccccc3)nn12
2. O=C(Nc1cccc(-c2cc(=O)n3nc(C(F)(F)F)c(-c4ccc(Cl)cc4)c3[nH]2)c1)c1ccccc1
3. O=c1cc(-c2ccc(Br)cc2)[nH]c2c(-c3ccc(Cl)cc3)c(C(F)(F)F)nn12
4. Cc1nn2c(=O)cc(-c3ccc(NC(=O)c4ccccc4)cc3)[nH]c2c1-c1ccc(Cl)cc1
5. O=c1cc(-c2ccc([N+](=O)[O-])cc2)[nH]c2c(-c3ccc(Cl)cc3)c(C3CCOCC3)nn12

Reply:
1. 1.3 µM
2. 20 µM
3. 1.1 µM
4. 2.4 µM
5. 5.1 µM

---

biological target: Arf6 (Homo sapiens (Human)); experiment: Fluorometric assay for Arf6 nucleotide exchange catalyzed by ARNO Sec7 domain (GTP-BODIPY FL); assay type: biochemical; conditions: IC50 (μM) 200 nM Arf6, 200 nM Arf6 assay
readout-type: IC50 (µM)
Answers are plain numbers, in µM.

Ask: Tell us which IC50 value is on record for "O=C1NC(=S)N(c2cccc(Cl)c2)C(=O)/C1=C/c1cccn1-c1ccc(Cl)cc1"
Reply: 1.8

---

biological target: Arf6 (Homo sapiens (Human)); assay: Fluorometric assay for Arf6 nucleotide exchange catalyzed by ARNO Sec7 domain (GTP-BODIPY FL); type: biochemical; details: 20 nM Arf6 assay; read-out: IC50 (μM) 20 nM Arf6
Bucketed by reported IC50, buckets being b0 (below 2 µM), b1 (2 µM to below 4 µM), b2 (4 µM or more)

Ask: Which class does "COc1ccc(C(=O)Nc2cccc(/C=C3\C(=O)NC(=O)c4ccccc43)c2)cc1" fall in?
Reply: b2

Ask: Which band does "O=c1cc(-c2ccccc2)[nH]c2c(-c3ccc(Cl)cc3)c(Cc3ccccc3)nn12" fall in?
Reply: b0

Ask: Dear colleague, I would appreciate it if you could identify the bin for "Cc1nn2c(=O)cc(-c3ccc([N+](=O)[O-])cc3)[nH]c2c1-c1cc(Cl)cc(Cl)c1" and reply at your convenience.
Reply: b1

Ask: In plain terms, what class is "Cc1nn2c(=O)cc(-c3ccc([N+](=O)[O-])cc3)[nH]c2c1-c1ccc(Cl)c(F)c1" ?
Reply: b2
